The reported numbers originate from patent US7183252B2.

Tested on: gel-filtered platelets
test: In vitro inhibition of thrombin-induced gel-filtered platelet aggregation
Type: cell-based
measurement conditions: Platelet; human gel-filtered platelets; agonist thrombin 50 μL of 1 unit/mL; read-out: Thrmb IC50 (Thrombin-induced aggregation of gel-filtered platelets)
pIC50: −log10 of the molar value.

{"compound": "COc1ccc(CNC(=O)[C@H](CCCNC(=N)N)NC(=O)[C@H](Cc2ccc(F)c(F)c2)NC(=O)Nc2ccc3c(CN4CCCC4)cn(Cc4c(Cl)cccc4Cl)c3c2)cc1 [Compound 61]", "limit sign": "=", "pIC50": 5.85}
{"compound": "COc1ccc(C[C@H](NC(=O)Nc2ccc3c(CNC4CC4)cn(Cc4ccc(F)cc4)c3c2)C(=O)N[C@@H](CCCNC(=N)N)C(=O)NCc2ccccc2)cc1 [Compound 45]", "limit sign": "<", "pIC50": 5.00}
{"compound": "CC(=N)NCCNC(=O)[C@H](CCNC(C)=N)NC(=O)[C@H](Cc1ccc(F)c(F)c1)NC(=O)Nc1ccc2c(CN3CCCC3)cn(Cc3c(Cl)cccc3Cl)c2c1 [Compound 140]", "limit sign": "=", "pIC50": 6.13}
{"compound": "N=C(N)NCCC[C@H](NC(=O)[C@H](Cc1ccc(Br)cc1)NC(=O)Nc1ccc2c(CN3CCCCC3)cn(Cc3c(Cl)cccc3Cl)c2c1)C(=O)NCc1ccccc1 [Compound 63]", "limit sign": "=", "pIC50": 6.15}
{"compound": "Cc1ccccc1Cn1cc(CN2CCC(N(C)C)C2)c2ccc(NC(=O)N[C@H](Cc3ccc(F)c(F)c3)C(=O)N[C@@H](CCCN=C(N)N)C(=O)NCc3ccccc3)cc21 (some centres unmarked) [Compound 90]", "limit sign": "<", "pIC50": 5.00}
{"compound": "N=C(N)NCCC[C@H](NC(=O)[C@H](Cc1ccccc1F)NC(=O)Nc1ccc2c(CN3CCCC3)cn(Cc3c(Cl)cccc3Cl)c2c1)C(=O)NCc1ccccc1 [Compound 51]", "limit sign": "=", "pIC50": 6.17}
{"compound": "CN(Cc1cn(Cc2c(Cl)cccc2Cl)c2cc(NC(=O)N[C@@H](Cc3ccc(Cl)cc3)C(=O)N[C@@H](CCCN)C(=O)NC3Cc4ccccc4C3)ccc12)CC1OCCO1 [Compound 122]", "limit sign": "=", "pIC50": 5.46}
{"compound": "Cc1ccccc1Cn1cc(CN2CCCC2)c2ccc(NC(=O)N[C@@H](Cc3cccc(C(F)(F)F)c3)C(=O)N[C@@H](CCCNC(=N)N)C(=O)NCc3ccccc3)cc21 [Compound 54]", "limit sign": "=", "pIC50": 6.30}
{"compound": "COc1ccc(C[C@H](NC(=O)Nc2ccc3c(CN4CCC4)cn(Cc4ccc(F)cc4)c3c2)C(=O)N[C@@H](CCCNC(=N)N)C(=O)NCc2ccccc2)cc1 [Compound 44]", "limit sign": "=", "pIC50": 5.01}
{"compound": "CN(Cc1ccccc1)C(=O)[C@H](CCCN)NC(=O)[C@H](Cc1ccc(F)c(F)c1)NC(=O)Nc1ccc2c(CN3CCCC3)cn(Cc3c(Cl)cccc3Cl)c2c1 [Compound 111]", "limit sign": "=", "pIC50": 5.49}
{"compound": "NCCNC(=O)[C@@H](Cc1cccs1)NC(=O)[C@@H](Cc1ccc(Cl)cc1)NC(=O)c1ccc2c(CN3CCCC3)cn(Cc3c(Cl)cccc3Cl)c2c1 [Compound 178]", "limit sign": "=", "pIC50": 4.39}
